assay: qHTS assay to identify small molecule agonists of the hypoxia (HIF-1) signaling pathway (AID 1224846); conditions: HRE-bla ME-180 cells, beta-lactamase ratio, 17 h; series mostly up to 76.8 µM
Inconclusive results are not listed. Activity calls are given as the source filed them. Calls follow the shape of the dose curve; as a rule, active = well fitted activation curve with a large enough effect in the signal ratio in the repeat runs (not every such curve was filed as active); inconclusive = weak or mixed curves; inactive = flat fitted curve, though single readings scatter; the % refers to the signal ratio.
Please state which outcome applies, choosing from active, inactive

Recorded results for 6 molecules are shown here.
molecule	label_class
Clc1ccc2cc3ccccc3cc2c1	active
ON=C1CCCC1	inactive
CC(=O)OCC(C)OC(C)=O (stereo not drawn)	inactive
C[C@H]1[C@H]2CC[C@H]3[C@@H]4CC=C5C[C@@H](N(C)C)CC[C@]5(C)[C@H]4CC[C@]23CN1C	inactive
CCCCCCCCCCC=O	inactive
O=C(Oc1ccccc1)c1ccccc1C(=O)Oc1ccccc1	inactive

Just curious, what result did CCN(C(=O)N(CC)c1ccccc1)c1ccccc1 get here?
inactive

Same read-out for Cc1ccc(-n2nc(C(C)(C)C)cc2NC(=O)Nc2ccc(OCCN3CCOCC3)c3ccccc23)cc1 ?
inactive

Same read-out for CNC(=O)c1ccccc1 ?
inactive

Same read-out for C=C(C)C(=O)OCC[N+](C)(C)C ?
inactive

Same read-out for Cc1cc(N)c(S(=O)(=O)O)cc1Cl ?
inactive

Same read-out for O=C(c1ccc(O)cc1O)c1ccc(O)cc1O ?
inactive

Same read-out for Cc1ccc(O)c(C(C)(C)C)c1 ?
inactive
